meta.source: the supplement of paper PMC10567573

B1: PHTF1 (parent)
chain: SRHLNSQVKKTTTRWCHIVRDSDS

# Variants of: B1
# MEASUREMENT NOTES: protein stability index of a GFP-peptide fusion (GPS, HEK-293T) (PSI 1-6); higher = more stable;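 also: lentivirally expressed fusions sorted by FACS into six bins by GFP to DsRed ratio, PSI derived from sequencing read proportions per bin multiplied by bin number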
# EXPERIMENTAL CONDITIONS: c terminus: a fixed tail appended
RECORDED METRIC: protein stability index
Enter the number alone.

The examples below pair each entry with its known result.
{"columns": ["MUTATION CODE", "protein stability index"],
 "data": [
  ["T11N", 1.79],
  ["L4F", 3.09],
  ["R20A", 2.31],
  ["S24H", 2.02],
  ["R14W", 1.65]
]}

Turning to the following variant.
Enquiry: Report protein stability index for `I18D` please.
Return: 3.92
